target: ARHGEF12, Q9NZN5-2; test: holdup assay; design: key: below the threshold = too weak to quantify, mostly under pKd 3.1 to 4; settings: plain residues with an end cap or a label only (N-terminal biotin on a linker: ttds)
Sequence (Q9NZN5 other isoform, or with tags, fused parts or gaps): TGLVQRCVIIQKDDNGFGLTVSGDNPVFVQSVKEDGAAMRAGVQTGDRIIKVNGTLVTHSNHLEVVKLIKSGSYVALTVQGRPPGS
Collected pKd values appear next to each entry.

binder	pKd
EVVHTPETSV [SLC16A3, O15427]	3.89
KKYVDAETSL [SLC4A7, Q9Y6M7]	4.29
DKDPHSETAL [TMIGD1, Q6UXZ0]	4.17
PVRVCEETSL [OTULIN, Q96BN8]	4.8
RLPKIKETTV [FRMPD4, Q14CM0]	4.23
EMDRRPATVV [PLCB4, Q15147]	4.53
